- Target entity: PDI1 enzyme (Homo sapiens, UniProt P07237)
- Sequence (P07237 18-508): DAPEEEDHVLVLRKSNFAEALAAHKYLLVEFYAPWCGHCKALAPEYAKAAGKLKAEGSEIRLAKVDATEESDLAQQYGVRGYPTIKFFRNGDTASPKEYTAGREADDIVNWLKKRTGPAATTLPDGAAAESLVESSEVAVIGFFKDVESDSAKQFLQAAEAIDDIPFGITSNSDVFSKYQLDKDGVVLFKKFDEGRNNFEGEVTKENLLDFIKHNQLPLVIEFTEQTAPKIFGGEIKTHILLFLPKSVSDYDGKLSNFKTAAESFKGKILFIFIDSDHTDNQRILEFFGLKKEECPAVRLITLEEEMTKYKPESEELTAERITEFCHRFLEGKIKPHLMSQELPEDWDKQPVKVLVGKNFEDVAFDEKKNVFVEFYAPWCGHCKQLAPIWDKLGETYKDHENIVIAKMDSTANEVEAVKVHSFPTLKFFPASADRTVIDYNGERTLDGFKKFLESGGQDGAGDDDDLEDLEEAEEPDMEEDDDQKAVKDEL
- Test summary: ProteoStat PDI assay
- Assay type: biochemical
- Measurement parameters: compound at 10 µM; mock = 100; SD in parentheses
Marks after values point to notes of the source that are not given here.
Assignment: determine reported PDI1 activity relative to mock for the given compounds.

Ask | Specify measured PDI1 activity relative to mock for CCOC(=O)C1=C[C@@H](OC(CC)CC)[C@H](NC(C)=O)[C@@H](N)C1 [Oseltamivir, oseltamivir phosphate] .
Reply | 103 (6) %

Ask | Name the recorded PDI1 activity relative to mock of the compound listed here: CC(=O)Oc1ccccc1C(=O)Nc1ncc([N+](=O)[O-])s1 [NTZ, nitazoxanide]
Reply | 81 (2) ^* %

Ask | Give the reported PDI1 activity relative to mock for this compound. C/C1=C/[C@H](O)C(C)(C)CCC/C(C)=C/C[C@H]1OC(=O)c1ccc(O)cc1
Reply | 41 (5) ^* %

====

- Target entity: PDI1 enzyme (Homo sapiens, UniProt P07237)
- Test summary: ProteoStat PDI assay
- Assay type: biochemical
- Measurement parameters: compound at 10 µM; mock = 100; SD in parentheses
Marks after values point to notes of the source that are not given here. Bridge positions count the residues as written; N and C are the ends. Square brackets hold non-standard residues; d marks the D form. Peptide text beside a SMILES is read from it. * marks the point of attachment. Ileψ(thiazoline)Cys = CC[C@H](C)[C@H](N)C1=N[C@H](C(=O)*)CS1; dOrn = NCCC[C@@H](N)C(=O)O
Test readout: PDI1 activity relative to mock

Ask | Supply PDI1 activity relative to mock value. Item: COC(=O)C1(C)c2[nH]c3ccccc3c2CCN1C(=O)CCl (stereo not drawn)
Reply | 89 (6) %

Ask | Tell us which PDI1 activity relative to mock value is on record for COC1=C2C[C@@H](C)C[C@H](OC)[C@H](O)[C@@H](C)/C=C(\C)[C@H](OC(N)=O)[C@@H](OC)/C=C\C=C(/C)C(=O)NC(=CC1=O)C2=O
Reply | 102 (5) %

Ask | Please supply the value of reported PDI1 activity relative to mock for the item CC[C@H](C)[C@H](N)C1=N[C@H](C(=O)N[C@@H](CC(C)C)C(=O)N[C@H](CCC(=O)O)C(=O)N[C@H](C(=O)N[C@H]2CCCCNC(=O)[C@H](CC(N)=O)NC(=O)[C@@H](CC(=O)O)NC(=O)[C@H](Cc3cnc[nH]3)NC(=O)[C@@H](Cc3ccccc3)NC(=O)[C@H]([C@@H](C)CC)NC(=O)[C@@H](CCCN)NC2=O)[C@@H](C)CC)CS1 [Bacitracin A, bacitracin A] ({Ileψ(thiazoline)Cys}-L[dE]IK[dOrn]I[dF]H[dD]N; lactam 4-C)
Reply | 81 (3) ^* %

Ask | Please report the measured PDI1 activity relative to mock for CC(C)(C)N([O])C(C)(C)C [Di-tert-butyl nitroxide (DTBN), Di-tert-butyl nitroxide]
Reply | 67 (6) ^* %

Ask | Output measured PDI1 activity relative to mock for this item: O=c1c(O[C@@H]2O[C@H](CO)[C@@H](O)[C@H](O)[C@H]2O)c(-c2ccc(O)c(O)c2)oc2cc(O)cc(O)c12
Reply | 32 (5) ^* %

Ask | State its PDI1 activity relative to mock: NC12CC3CC(CC(C3)C1)C2 [Amantidine, amantadine]
Reply | 102 (5) %

FYI, the data here is from paper PMC5831498.
